The origin of these recorded values is ChEMBL document CHEMBL5523673.

Assay: Antiproliferative activity against human HFF-1 cells assessed as reduction in cell viability incubated for 72 hrs by CCK-8 assay
Type: toxicity, cell-based
Value type: IC50 at 72 h (µM)
Entry rule: numbers only, all in µM.

Prompt line: Request the reported IC50 at 72 h associated with Cc1ncsc1-c1ccc([C@H](C)NC(=O)[C@@H]2C[C@@H](O)CN2C(=O)[C@@H](NC(=O)COCCCOCCNC(=O)C[C@@H]2N=C(c3ccc(Cl)cc3)c3c(sc(C)c3C)-n3c(C)nnc32)C(C)(C)C)cc1
Response line: 1.1

---

Test: Antiproliferative activity against mouse 3T3 cells assessed as reduction in cell viability incubated for 72 hrs by CCK-8 assay
Assay type: toxicity, cell-based
Details: NIH3T3 cells
Reported values of IC50 at 72 h for individual entries
Entry rule: numbers only, all in nM.

[[record]]
compound_smiles = "Cc1ncsc1-c1ccc([C@H](C)NC(=O)[C@@H]2C[C@@H](OC(=O)CCCCn3cc(CNC(=O)CC[C@H](NC(=O)c4ccc(NCc5cnc6nc(N)[nH]c(=O)c6n5)cc4)C(=O)O)nn3)CN2C(=O)[C@@H](NC(=O)COCCCOCCNC(=O)C[C@@H]2N=C(c3ccc(Cl)cc3)c3c(sc(C)c3C)-n3c(C)nnc32)C(C)(C)C)cc1"
value_measured = 1400


Then this compound:
Prompt line: Request the reported IC50 at 72 h associated with Cc1ncsc1-c1ccc([C@H](C)NC(=O)[C@@H]2C[C@@H](O)CN2C(=O)[C@@H](NC(=O)COCCCOCCNC(=O)C[C@@H]2N=C(c3ccc(Cl)cc3)c3c(sc(C)c3C)-n3c(C)nnc32)C(C)(C)C)cc1
Response line: 210

---

Assay: Antiproliferative activity against human HK-2 cells assessed as reduction in cell viability incubated for 72 hrs by CCK-8 assay
Assay type: toxicity, cell-based
Reported values of IC50 at 72 h for individual entries

[[record]]
compound_smiles = "Cc1ncsc1-c1ccc([C@H](C)NC(=O)[C@@H]2C[C@@H](O)CN2C(=O)[C@@H](NC(=O)COCCCOCCNC(=O)C[C@@H]2N=C(c3ccc(Cl)cc3)c3c(sc(C)c3C)-n3c(C)nnc32)C(C)(C)C)cc1"
value_type = "IC50 at 72 h"
value_measured = "160 nM"


Then this molecule:
Prompt line: Request the reported IC50 at 72 h associated with Cc1ncsc1-c1ccc([C@H](C)NC(=O)[C@@H]2C[C@@H](OC(=O)CCCCn3cc(CNC(=O)CC[C@H](NC(=O)c4ccc(NCc5cnc6nc(N)[nH]c(=O)c6n5)cc4)C(=O)O)nn3)CN2C(=O)[C@@H](NC(=O)COCCCOCCNC(=O)C[C@@H]2N=C(c3ccc(Cl)cc3)c3c(sc(C)c3C)-n3c(C)nnc32)C(C)(C)C)cc1
Response line: 2100 nM
